Molecular target: Wee1 protein (Homo sapiens)
Sequence (P30291 whole entry): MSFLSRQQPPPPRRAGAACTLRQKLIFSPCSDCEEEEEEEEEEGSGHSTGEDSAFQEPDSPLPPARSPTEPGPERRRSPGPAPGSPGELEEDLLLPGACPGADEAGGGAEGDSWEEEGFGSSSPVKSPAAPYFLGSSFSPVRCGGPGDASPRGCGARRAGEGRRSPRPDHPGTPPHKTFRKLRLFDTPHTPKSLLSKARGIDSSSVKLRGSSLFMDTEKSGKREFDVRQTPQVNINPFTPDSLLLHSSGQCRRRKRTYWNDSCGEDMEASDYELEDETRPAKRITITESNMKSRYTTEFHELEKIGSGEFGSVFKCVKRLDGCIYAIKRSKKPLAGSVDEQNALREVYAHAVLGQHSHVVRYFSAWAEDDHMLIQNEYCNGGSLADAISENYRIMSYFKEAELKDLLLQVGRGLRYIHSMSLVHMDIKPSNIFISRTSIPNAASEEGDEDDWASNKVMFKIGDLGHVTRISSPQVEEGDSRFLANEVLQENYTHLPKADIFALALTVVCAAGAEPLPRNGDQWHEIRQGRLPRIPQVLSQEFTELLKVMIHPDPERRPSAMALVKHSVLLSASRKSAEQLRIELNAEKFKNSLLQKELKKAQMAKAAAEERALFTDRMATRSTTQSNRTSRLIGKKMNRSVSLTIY
RESULT TYPE: IC50

Using the record for C=CCn1c(=O)c2cnc(Nc3ccc(N4CC5CC(C4)N5C(C)=O)cc3)nc2n1-c1cccc(C(C)(C)O)n1 , report its IC50.
10 to 100 nM

Can you check C=CCn1c(=O)c2cnc(Nc3ccc(N4CC5CC(C4)N5CCO)cc3)nc2n1-c1cccc(C(C)(C)O)n1 next?
5 to 10 nM

Can you check C=CCn1c(=O)c2cnc(Nc3ccc(N4C5CCC4CN(C)C5)cc3)nc2n1-c1cccc(C(C)(C)O)n1 next?
5 to 10 nM

Can you check C=CCn1c(=O)c2cnc(Nc3cnn(-c4ccc(N(C)C)cc4)c3)nc2n1-c1cccc(C(C)(C)O)n1 next?
10 to 100 nM

Can you check C=CCn1c(=O)c2cnc(Nc3ccc(N(C)[C@H]4CN5CCC4CC5)cc3)nc2n1-c1cccc(C(C)(C)O)n1 next?
5 to 10 nM

Can you check C=CCn1c(=O)c2cnc(Nc3ccc(N4CC5CC(CN(CC(F)(F)F)C5)C4)cc3)nc2n1-c1cccc(C(C)(C)O)n1 next?
10 to 100 nM

Can you check C=CCn1c(=O)c2cnc(Nc3ccc(OC4CN5CCC4CC5)cc3)nc2n1-c1cccc(C(C)(C)O)n1 (stereo not shown) next?
< 5 nM

This collection of values is drawn from patent US20250034151A1.
